measurement-target: panel of 203 kinases (Homo sapiens, UniProt P37023)
Construct: purchased DiscoverX (KINOMEscan)
Sequence (P37023 22-503): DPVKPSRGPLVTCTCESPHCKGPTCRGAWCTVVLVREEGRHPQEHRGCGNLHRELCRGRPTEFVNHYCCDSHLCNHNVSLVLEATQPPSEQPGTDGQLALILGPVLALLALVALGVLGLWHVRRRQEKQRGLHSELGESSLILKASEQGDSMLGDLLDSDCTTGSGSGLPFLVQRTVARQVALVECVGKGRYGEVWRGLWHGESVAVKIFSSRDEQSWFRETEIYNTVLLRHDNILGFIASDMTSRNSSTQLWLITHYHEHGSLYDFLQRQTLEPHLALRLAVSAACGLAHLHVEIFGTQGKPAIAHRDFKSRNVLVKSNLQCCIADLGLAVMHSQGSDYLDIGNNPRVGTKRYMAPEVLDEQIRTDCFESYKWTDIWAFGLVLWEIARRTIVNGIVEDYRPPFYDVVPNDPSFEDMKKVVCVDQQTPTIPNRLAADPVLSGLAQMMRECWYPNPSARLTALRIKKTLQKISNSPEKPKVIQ
protocol: KINOMEscan competitive binding, whole panel
condition-context: 10 µM, n=1; kinase ACVRL1; read-out: Percent inhibition ACVRL1
Text: The kinases were expressed as fusions to T7 bacteriophage. This is a sensitive, competitive binding assay where test compounds were used to displace immobilized ATP-site binding probe ligands from kinases of interest. The amount of kinase that remained bound to the immobilized probe ligands on the solid support was quantified. Percentage inhibition data were was plotted on kinome trees using the web-based tool KinMap (http://www.kinhub.org/kinmap) ([60]).
Overview of reported inhibition at 10 µM across a group of molecules:

smiles-record: COc1ccc(Nc2nccc(-c3cnn4ncccc34)n2)cc1
unit-spec: %
inhibition at 10 µM: 0

smiles-record: Clc1ccc(Nc2ncc(-c3ccccc3)s2)cc1
unit-spec: %
inhibition at 10 µM: 0

smiles-record: CN1CCN(c2ccc(Nc3nccc(-c4cnn5ncccc45)n3)cc2C#N)CC1
unit-spec: %
inhibition at 10 µM: 85

smiles-record: Cc1ccc(O)cc1N(C)c1ccnc(Nc2cccc(S(N)(=O)=O)c2)n1
unit-spec: %
inhibition at 10 µM: 100

smiles-record: c1ccc(COc2cccc(-c3ccnc4[nH]ccc34)c2)cc1
unit-spec: %
inhibition at 10 µM: 0

smiles-record: COc1cc(Nc2nccc(-c3sc(N)nc3-c3cccc(NC(=O)c4c(F)cccc4F)c3)n2)cc(OC)c1OC
unit-spec: %
inhibition at 10 µM: 0

smiles-record: C[C@@H](Oc1cc(-c2cnc3ccccn23)sc1C(N)=O)c1ccccc1Cl
unit-spec: %
inhibition at 10 µM: 0

smiles-record: Cc1ccc(O)cc1Nc1ccnc(Nc2cccc(C(N)=O)c2)n1
unit-spec: %
inhibition at 10 µM: 99.7

smiles-record: Nc1ncc2c(-c3ccncc3)c[nH]c2n1
unit-spec: %
inhibition at 10 µM: 0

smiles-record: Fc1cccc(COc2ccc(Nc3ncnc4c3CN(CCN3CCOCC3)CC4)cc2Cl)c1
unit-spec: %
inhibition at 10 µM: 0

###

measurement-target: PLK3 (Homo sapiens, UniProt Q9H4B4)
Construct: purchased DiscoverX (KINOMEscan)
Sequence (Q9H4B4 whole entry): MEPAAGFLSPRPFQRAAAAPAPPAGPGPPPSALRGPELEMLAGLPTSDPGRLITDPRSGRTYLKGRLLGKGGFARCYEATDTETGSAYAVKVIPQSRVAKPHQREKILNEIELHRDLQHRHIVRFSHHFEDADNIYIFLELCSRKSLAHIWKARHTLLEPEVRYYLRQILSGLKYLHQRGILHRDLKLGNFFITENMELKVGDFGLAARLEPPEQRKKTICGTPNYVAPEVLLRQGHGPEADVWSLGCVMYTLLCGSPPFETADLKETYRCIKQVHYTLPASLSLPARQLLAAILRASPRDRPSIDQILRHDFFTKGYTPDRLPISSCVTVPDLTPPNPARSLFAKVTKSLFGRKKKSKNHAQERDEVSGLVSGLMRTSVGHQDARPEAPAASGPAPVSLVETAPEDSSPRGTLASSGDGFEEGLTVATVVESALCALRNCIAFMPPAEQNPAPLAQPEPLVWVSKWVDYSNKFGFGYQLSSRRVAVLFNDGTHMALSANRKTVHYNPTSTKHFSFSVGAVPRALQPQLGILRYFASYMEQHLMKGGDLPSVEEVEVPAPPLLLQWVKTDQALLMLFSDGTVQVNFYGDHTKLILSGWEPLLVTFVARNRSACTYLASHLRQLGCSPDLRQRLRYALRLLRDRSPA
protocol: KINOMEscan competitive binding
condition-context: n=1, read-out: Percent inhibition, PLK3

smiles-record: COc1cc(Nc2nccc(-c3sc(N)nc3-c3cccc(NC(=O)c4c(F)cccc4F)c3)n2)cc(OC)c1OC
unit-spec: %
inhibition at 10 µM: 99.8
//
smiles-record: Fc1cccc(COc2ccc(Nc3ncnc4c3CN(CCN3CCOCC3)CC4)cc2Cl)c1
unit-spec: %
inhibition at 10 µM: 0
//
smiles-record: Clc1ccc(Nc2ncc(-c3ccccc3)s2)cc1
unit-spec: %
inhibition at 10 µM: 0
//
smiles-record: COc1ccc(Nc2nccc(-c3cnn4ncccc34)n2)cc1
unit-spec: %
inhibition at 10 µM: 0
//
smiles-record: c1ccc(COc2cccc(-c3ccnc4[nH]ccc34)c2)cc1
unit-spec: %
inhibition at 10 µM: 0
//
smiles-record: Cc1ccc(O)cc1Nc1ccnc(Nc2cccc(C(N)=O)c2)n1
unit-spec: %
inhibition at 10 µM: 79
//
smiles-record: CN1CCN(c2ccc(Nc3nccc(-c4cnn5ncccc45)n3)cc2C#N)CC1
unit-spec: %
inhibition at 10 µM: 0
//
smiles-record: C[C@@H](Oc1cc(-c2cnc3ccccn23)sc1C(N)=O)c1ccccc1Cl
unit-spec: %
inhibition at 10 µM: 95.6
//
smiles-record: Nc1ncc2c(-c3ccncc3)c[nH]c2n1
unit-spec: %
inhibition at 10 µM: 0
//
smiles-record: Cc1ccc(O)cc1N(C)c1ccnc(Nc2cccc(S(N)(=O)=O)c2)n1
unit-spec: %
inhibition at 10 µM: 0

Taken from paper PMC9927415.
